FYI, the data here is from patent US9957270B2.

measurement-target: UniProt Q13547
Sequence (Q13547 whole entry): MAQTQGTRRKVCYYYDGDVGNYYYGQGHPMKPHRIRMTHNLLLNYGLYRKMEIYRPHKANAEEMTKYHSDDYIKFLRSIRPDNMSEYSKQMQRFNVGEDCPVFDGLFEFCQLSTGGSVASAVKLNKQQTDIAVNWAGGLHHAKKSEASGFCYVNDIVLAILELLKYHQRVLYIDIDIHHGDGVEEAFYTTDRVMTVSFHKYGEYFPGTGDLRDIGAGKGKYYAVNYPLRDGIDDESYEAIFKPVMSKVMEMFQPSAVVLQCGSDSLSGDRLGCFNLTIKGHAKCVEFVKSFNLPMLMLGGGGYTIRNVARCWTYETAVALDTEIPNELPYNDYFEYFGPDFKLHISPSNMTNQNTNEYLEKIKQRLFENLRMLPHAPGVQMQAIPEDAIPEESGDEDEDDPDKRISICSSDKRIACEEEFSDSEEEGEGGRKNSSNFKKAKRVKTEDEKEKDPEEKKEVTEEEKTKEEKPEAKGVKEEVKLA
test-details: HDAC enzyme assay, recombinant HDAC1
Exercise: state measured IC50 for each of the molecules provided.

Specify IC50 for CC(C)n1cnc2c(-c3cccc(OCC(=O)NO)c3)nc(N3CCOCC3)nc21 [compound 24] , system UniProt Q13547. 1 to 10 µM

Specify IC50 for CCN(CC)c1nc2c(-c3cnc(N)nc3)nc(N3CCOCC3)nc2n1CCCC(=O)NO [compound 28] , system UniProt Q13547. 1 to 10 µM

Specify IC50 for CC(C)n1cnc2c(N3CCOCC3)nc(-c3ccc(OCCCCCCC(=O)NO)cc3)nc21 [compound 81] , system UniProt Q13547. < 0.01 µM

Please give IC50, item by item, for the list that follows.
1. CC(C)n1c(N2CCC(C(=O)NO)CC2)nc2c(N3CCOCC3)nc(-c3cnc(N)nc3)nc21 [compound 86]
2. CC(C)n1cnc2c(-c3cccc(COCCCCC(=O)NO)c3)nc(N3CCOCC3)nc21 [compound 23]
3. CC(C)n1cnc2c(N3CCOCC3)nc(-c3cccc(OCCCCCCC(=O)NO)c3)nc21 [compound 84]
4. CCn1c(CN(C)Cc2ccc(C(=O)NO)cc2)nc2c(N3CCOCC3)nc(-c3cnc(N)nc3)nc21 [compound 7]
5. CC(C)n1cnc2c(-c3cccc(OCCCC(=O)NO)c3)nc(N3CCOCC3)nc21 [compound 1]

1 to 10 µM
0.01 to 0.1 µM
0.1 to 1 µM
0.01 to 0.1 µM
0.01 to 0.1 µM

Please give IC50, item by item, for the list that follows.
1. CCn1c(CN2CCC(C(=O)NO)CC2)nc2c(N3CCOCC3)nc(-c3cnc(N)nc3)nc21 [compound 88]
2. CCn1c(CN(C)Cc2ccc(/C=C/C(=O)NO)cc2)nc2c(N3CCOCC3)nc(-c3cccc(NC(C)=O)c3)nc21 [compound 92]

1 to 10 µM
0.1 to 1 µM
